# RUN_DESCRIPTION: Cytotoxicity against human HCT116 cells by MTT assay
# Type: functional, cell-based
# CONDITION_INFO: HCT-116
MEASURED_QUANTITY: pIC50
Give bare numbers, as −log10 of the molar value.

Example results:
{"columns": ["SMILES_RECORD", "QUANTITATIVE_READOUT"],
 "data": [
  ["CCC(/C=C/C(=O)N[C@@H](C)C(=O)OC)=C\\c1ccc2c(c1)OCO2", 4.33],
  ["CCC(/C=C/C(=O)N[C@@H](Cc1ccccc1)C(=O)OC)=C\\c1ccc2c(c1)OCO2", 4.32],
  ["CCC(/C=C/C(=O)N1CCC[C@H]1C(=O)OC)=C\\c1ccc2c(c1)OCO2", 4.30]
]}

Next, consider the following molecule.
Any idea what pIC50 was measured for CCC(/C=C/C(=O)NCC1(CC(=O)OC)CCCCC1)=C\c1ccc2c(c1)OCO2 ?
4.32

* * *

# RUN_DESCRIPTION: Cytotoxicity against human HCT116 cells by MTT assay
# Assay type: functional, cell-based
# CONDITION_INFO: HCT-116
pIC50: −log10 of the molar value.
Hi there, I'd appreciate the recorded pIC50 for every entry that follows.

Example results:
{"columns": ["SMILES_RECORD", "RESULT"],
 "data": [
  ["CCC(/C=C/C(=O)NC1(CC(=O)OC)CCCCC1)=C\\c1ccc2c(c1)OCO2", "< 4.00"],
  ["CCC(/C=C/C(=O)O)=C\\c1ccc2c(c1)OCO2", "< 4.00"]
]}

Next, consider the following molecule.
Any idea what pIC50 was measured for CCCCC(=O)NC1(CC(=O)NNc2ccccc2)CCN(C(=O)/C=C/C(=C/c2ccc3c(c2)OCO3)CC)CC1 ?
< 4.00
